Consider the following molecules; for each one, report its 12.5 ng mRNA, 3.9 nM sgRNA Avg % Edit.
system: TTR; assay: TTR editing in primary cyno hepatocytes treated with LNP formulated Spy Cas9 mRNA (SEQ ID NO: 2) and sgRNAs (Tables 17, 18); format: cell-based, cynomolgus monkey; details: Table 17, LNP formulated Spy Cas9 mRNA (SEQ ID NO: 2) and sgRNA, 12.5 ng mRNA, 3.9 nM sgRNA, 72 hours
Strand notation (5' to 3'): a small letter for the sugar, then the base; units joined by * are phosphorothioate-linked, units joined directly phosphodiester-linked; [ ] holds rarer units or linkages, { } end groups; capitals alone tell only the bases. m = 2'-O-methyl; r = 2'-OH (RNA)
Form entry: value (%) — number only.

Challenge: State the recorded 12.5 ng mRNA, 3.9 nM sgRNA Avg % Edit for this entry: G000485: TTR sgRNA modified sequence, Human, SEQ ID No. 92; guide sequence of CR003336 (nucleic acid) guide: mC*mC*mU*rCrCrUrCrUrGrCrCrUrUrGrCrUrGrGrArCrGrUrUrUrUrArGrAmGmCmUmAmGmAmAmAmUmAmGmCrArArGrUrUrArArArArUrArArGrGrCrUrArGrUrCrCrGrUrUrArUrCrAmAmCmUmUmGmAmAmAmAmAmGmUmGmGmCmAmCmCmGmAmGmUmCmGmGmUmGmCmU*mU*mU*mU
Response given: 1.43

Challenge: Also G000491: TTR sgRNA modified sequence, Human, SEQ ID No. 98; guide sequence of CR003338 (nucleic acid) guide: mA*mU*mA*rCrCrArGrUrCrCrArGrCrArArGrGrCrArGrGrUrUrUrUrArGrAmGmCmUmAmGmAmAmAmUmAmGmCrArArGrUrUrArArArArUrArArGrGrCrUrArGrUrCrCrGrUrUrArUrCrAmAmCmUmUmGmAmAmAmAmAmGmUmGmGmCmAmCmCmGmAmGmUmCmGmGmUmGmCmU*mU*mU*mU ?
Response given: 6.37

Challenge: Also G000490: TTR sgRNA modified sequence, Human, SEQ ID No. 97; guide sequence of CR003366 (nucleic acid) guide: mA*mA*mA*rUrArGrArCrArCrCrArArArUrCrUrUrArCrGrUrUrUrUrArGrAmGmCmUmAmGmAmAmAmUmAmGmCrArArGrUrUrArArArArUrArArGrGrCrUrArGrUrCrCrGrUrUrArUrCrAmAmCmUmUmGmAmAmAmAmAmGmUmGmGmCmAmCmCmGmAmGmUmCmGmGmUmGmCmU*mU*mU*mU ?
Response given: 15.23
